# testTarget: recombinant human FGFR2 cytoplasmic domain (Homo sapiens (Human), UniProt P21802)
# Sequence (P21802 402-821): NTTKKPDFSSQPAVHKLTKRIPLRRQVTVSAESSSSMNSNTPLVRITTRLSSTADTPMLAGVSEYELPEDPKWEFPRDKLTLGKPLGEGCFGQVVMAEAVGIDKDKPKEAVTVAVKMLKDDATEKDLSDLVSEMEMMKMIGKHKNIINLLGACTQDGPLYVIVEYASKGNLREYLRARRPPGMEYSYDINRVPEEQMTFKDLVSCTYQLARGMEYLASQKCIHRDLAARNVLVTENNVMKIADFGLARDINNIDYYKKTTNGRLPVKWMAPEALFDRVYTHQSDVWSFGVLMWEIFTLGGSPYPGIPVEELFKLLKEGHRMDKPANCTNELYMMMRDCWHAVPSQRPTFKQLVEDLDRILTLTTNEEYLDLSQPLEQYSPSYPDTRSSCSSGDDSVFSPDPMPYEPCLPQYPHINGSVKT
# protocolText: FGFR Enzyme Activity Assay (LanthaScreen TR-FRET), FGFR2
# experimentalSetup: 15 μM ATP, 20 minute incubation; read-out: FGFR2 Enz FRET IC50
parameterMeasured: IC50 (nM)

Hello, please tell me recorded IC50 for this one: `C=CC(=O)N1CC(C(=O)N2CC(n3cc(-c4cnc5ccc(Nc6cc(OC)cc(OC)c6)cc5n4)cn3)C2)C1`
27

1 = C=CC(=O)N1CC(C(=O)N2CCC(n3ncc(-c4cnc5ccc(Nc6cc(OC)cc(OC)c6)cc5n4)c3C)CC2)C1
2 = C=CC(=O)N1CC(F)(C(=O)N2CCC(n3cc(-c4cnc5ccc(Nc6cc(OC)cc(OC)c6)cc5n4)cn3)CC2)C1
3 = C=CC(=O)N1CC[C@@H](C(=O)N2CCC(n3cc(-c4cnc5ccc(Nc6cc(OC)cc(OC)c6)cc5n4)cn3)CC2)C1
Exam item: list the entries in increasing order of IC50. Hello, could you send the labels back in the order asked? Thank you.
3, 2, 1

Reference source: patent US12351571B2
